test system: PPARg:RXRa 270nM:90nM, anti-RXR (NR concentration 270 nM, RXRa partner concentration 90 nM); assay: PBM binding z-score (relative to random genomic background probes); higher = stronger binding; sequences stand for … in GC…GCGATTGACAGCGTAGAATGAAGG
PBM binding z-score vs 2: at or above is y, below is n.

Incoming: Quick check, PBM binding z-score >= 2? ATCTGTAGGTAACCAAGTTCAGTGAATGCCGAAC
Outgoing: n

Incoming: Answer whether PBM binding z-score of GTGACTGGGGCATCAGCAGGTTACCATAACTTAA is greater than or equal to 2.
Outgoing: n

Incoming: Check if PBM binding z-score >= 2 (inclusive). Item: ACTAGCCGGCCAAGGGTCACTCAAGATTAGTCCG
Outgoing: y

Incoming: Check this sequence for PBM binding z-score at or above 2: TAGCCTAGGTCATGGGCCGGTATACCACGCGAAC
Outgoing: y

Incoming: Hi team, for TCCATTAGTTGATTAGGGCAACCGAAACAGCGGA , is the recorded PBM binding z-score at or above 2?
Outgoing: y

Incoming: Kindly determine if PBM binding z-score recorded for CTACCAAGGTGGACAAGGTCGTTGATTACTATTC is above or exactly 2.
Outgoing: n

Incoming: Dear colleague, could you confirm whether CCTACTGGGCCAAAGGTCACTGATTCCAATGCTC has PBM binding z-score at or above 2?
Outgoing: y

Incoming: Please indicate if the recorded PBM binding z-score for GCATATAGGTAATACAAGGTGAAATTCCGATTGT meets or exceeds 2.
Outgoing: n

Incoming: # bool: PBM binding z-score of TCTTGTAGCTCAAGCAGGTTAAGAAAGCCTGAGT >= 2
Outgoing: n

Incoming: Form field: PBM binding z-score at least 2? Entry: TCAAATAGGTAATACAGGTGAAAGTCGGCATCTA
Outgoing: y

Incoming: Hi team, for AGTCAAAGTTCCCTAGGTAACGTAAGATTCAGCT , is the recorded PBM binding z-score at or above 2?
Outgoing: n

Incoming: For this sequence, is measured PBM binding z-score 2 or higher? GGAACGAGGGCAAGATGATAGCAGAGTTTGATGG
Outgoing: n
